target: RAD51 E258A (Homo sapiens, UniProt Q06609 1-339, E258A); assay: fluorescence quenching
Sequence (Q06609 whole entry E258A): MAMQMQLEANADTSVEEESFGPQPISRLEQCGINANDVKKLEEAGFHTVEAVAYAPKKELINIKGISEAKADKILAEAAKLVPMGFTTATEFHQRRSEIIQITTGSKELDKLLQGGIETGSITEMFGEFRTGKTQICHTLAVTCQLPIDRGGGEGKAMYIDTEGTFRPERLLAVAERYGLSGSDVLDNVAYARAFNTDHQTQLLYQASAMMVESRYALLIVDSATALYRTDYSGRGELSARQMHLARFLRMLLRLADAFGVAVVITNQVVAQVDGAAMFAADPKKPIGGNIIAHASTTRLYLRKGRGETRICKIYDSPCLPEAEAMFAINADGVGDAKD
READOUT TYPE: Kd (µM)
Expressed in µM, but write only the number.

[
  {
    "BINDER": "AAAAAAAAAAAAAAAAAAAAAAAAA (ssDNA) [oligo 9 ssDNA (AF546 poly-dA)]",
    "UNITS TEXT": "µM",
    "Kd": 3.1
  }
]

Then this binder:
For this binder ( oligo 9/10 dsDNA (AF546) (dsDNA) DNA 1: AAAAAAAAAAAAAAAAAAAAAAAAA DNA 2: TTTTTTTTTTTTTTTTTTTTTTTTT ), measured Kd is 1.3
